human p38alfa (SAPKa) enzyme (Homo sapiens (Human)): reported IC50 for various compounds.
Sequence (Q16539 whole entry): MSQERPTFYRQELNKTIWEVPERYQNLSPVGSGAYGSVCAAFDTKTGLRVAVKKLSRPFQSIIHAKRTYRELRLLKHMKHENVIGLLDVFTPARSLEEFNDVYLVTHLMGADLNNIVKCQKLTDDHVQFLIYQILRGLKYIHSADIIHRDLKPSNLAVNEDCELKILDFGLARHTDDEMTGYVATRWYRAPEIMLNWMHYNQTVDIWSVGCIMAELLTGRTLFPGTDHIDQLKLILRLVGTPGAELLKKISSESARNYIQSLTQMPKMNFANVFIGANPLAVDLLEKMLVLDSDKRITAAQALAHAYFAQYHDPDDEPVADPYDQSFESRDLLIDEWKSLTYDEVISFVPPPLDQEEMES
Report the figure in nM without appending any unit label.

// worked examples, IC50 included
| compound | IC50 [nM] |
| --- | --- |
| Cc1nnc(-c2ccc(C)c(-c3ccc4c(c3)NC(=O)C43CCC(F)(F)CC3)c2)o1 | 5.6 |
| Cc1ccc(C(=O)NC2CC2)cc1-c1ncc2c(n1)NC(=O)C21CCCC1 | 72 |
| Cc1nnc(-c2cc(F)c(C)c(-c3ccc4c(c3)NC(=O)C43CCC(C)(O)CC3)c2)[nH]1 (stereo not shown) | 8 |

Query compound follows.
Fill in: human p38alfa (SAPKa) enzyme (Homo sapiens (Human)) IC50 for `Cc1nnc(-c2ccc(C)c(-c3ccc4c(c3)NC(=O)C43CCCC3)c2)[nH]1` = 7.5
